These data points were gathered from patent US20140314857A1.

Protocol: Intravenous and intraduodenal bioavailability of zanamivir from three formulations (Example 5)
Measurement conditions: male, Sprague-Dawley, rat, in vivo, 1.5 mg, tmax, ID 1.5 mg/animal, PBS 50 µL; individual rats
Experimental: Male Sprague-Dawley rats (Hilltop Labs), 3 animals per treatment group, 250-350 grams in weight, were fitted with a jugular vein cannula (JVC). […] In this example, the bioavailability of Zanamivir was evaluated after intravenous and intraduodenal doses in male Sprague-Dawley rats. […] Plasma levels were determined by LC-MS/MS analysis. […]
Readout type: Tmax (min)
The reply should contain only the number, in min.

// query What value of Tmax has been recorded for this entry: CC(=O)NC1C(NC(=N)N)C=C(C(=O)O)OC1C(O)C(O)CO (stereo not shown) [Zanamivir]
// result 30
